Listed here: items and their measured Dmax.
- measuredOn: Androgen Receptor (Homo sapiens, UniProt P10275)
- Construct: endogenous in cells; host or cells: VCaP cells
- Sequence (P10275 whole entry): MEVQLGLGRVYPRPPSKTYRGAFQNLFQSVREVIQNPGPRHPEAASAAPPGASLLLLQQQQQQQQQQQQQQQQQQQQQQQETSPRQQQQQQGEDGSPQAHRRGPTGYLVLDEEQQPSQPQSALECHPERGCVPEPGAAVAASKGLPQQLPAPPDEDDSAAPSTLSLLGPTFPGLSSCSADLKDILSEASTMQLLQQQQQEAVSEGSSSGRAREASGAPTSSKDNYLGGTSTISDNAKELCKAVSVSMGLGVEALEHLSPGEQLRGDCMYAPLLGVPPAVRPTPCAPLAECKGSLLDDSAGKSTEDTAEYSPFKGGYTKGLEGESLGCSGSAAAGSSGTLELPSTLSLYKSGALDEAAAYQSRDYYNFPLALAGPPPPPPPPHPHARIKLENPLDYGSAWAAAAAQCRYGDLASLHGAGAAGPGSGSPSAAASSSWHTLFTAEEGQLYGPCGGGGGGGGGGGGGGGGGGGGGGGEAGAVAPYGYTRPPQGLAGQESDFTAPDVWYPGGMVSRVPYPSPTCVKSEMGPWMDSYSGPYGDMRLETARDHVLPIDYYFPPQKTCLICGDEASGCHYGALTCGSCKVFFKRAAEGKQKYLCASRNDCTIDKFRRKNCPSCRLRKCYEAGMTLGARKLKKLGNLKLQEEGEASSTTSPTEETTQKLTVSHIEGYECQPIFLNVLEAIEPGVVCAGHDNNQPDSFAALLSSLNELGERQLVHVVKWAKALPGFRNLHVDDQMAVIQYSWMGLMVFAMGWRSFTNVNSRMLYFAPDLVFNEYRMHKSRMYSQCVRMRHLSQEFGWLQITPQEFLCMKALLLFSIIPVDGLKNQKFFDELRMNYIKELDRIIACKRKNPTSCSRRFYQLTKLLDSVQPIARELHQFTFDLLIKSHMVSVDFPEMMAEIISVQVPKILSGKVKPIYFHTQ
- methodDescription: Androgen Receptor ELISA assay (PathScan AR ELISA) in VCaP cells: AR degradation, Dmax and DC50
- Format: cell-based
- measurementSetup: VCaP, VCaP cells; Table 36; read-out: VCaP Dmax (%)

Guide cases for Dmax, answers given:
{"compound": "Cc1ncsc1-c1ccc([C@H](C)NC(=O)[C@@H]2C[C@@H](O)CN2C(=O)[C@@H](NC(=O)CCCCN2CCN(c3ccc(C(=O)N[C@H]4C(C)(C)[C@H](Oc5ccc(C#N)c(Cl)c5)C4(C)C)cn3)CC2)C(C)(C)C)cc1 [Example 779]", "endpointValue": "< 25%"}
{"compound": "CC(C)[C@H](C(=O)N1C[C@H](O)C[C@H]1C(=O)NCc1ccc(C#N)cc1)N1Cc2ccc(N3CCN(CCCc4ccc(C(=O)N[C@H]5C(C)(C)[C@H](Oc6ccc(C#N)c(C(F)(F)F)c6)C5(C)C)cc4)CC3)cc2C1=O [Example 771]", "endpointValue": "< 25%"}
{"compound": "Cc1ncsc1-c1ccc([C@H](C)NC(=O)[C@@H]2C[C@@H](O)CN2C(=O)[C@@H](NC(=O)COCCN2CCN(c3cnc(C(=O)N[C@H]4C(C)(C)[C@H](Oc5ccc(C#N)c(C(F)(F)F)c5)C4(C)C)cn3)CC2)C(C)(C)C)cc1 [Example 689]", "endpointValue": "> 71%"}
{"compound": "Cc1ncsc1-c1ccc([C@H](C)NC(=O)[C@@H]2C[C@@H](O)CN2C(=O)[C@@H](c2cc(CCCN3CCN(c4ccc(C(=O)N[C@H]5C(C)(C)[C@H](Oc6ccc(C#N)c(Cl)c6)C5(C)C)cn4)CC3)no2)C(C)C)cc1 [Example 819]", "endpointValue": "> 71%"}
{"compound": "Cc1ncsc1-c1ccc([C@H](C)NC(=O)C2C[C@@H](O)CN2C(=O)C(NC(=O)CCCN2CCN(c3ccc(C(=O)N[C@H]4C(C)(C)[C@H](Oc5ccc(C#N)c(Cl)c5)C4(C)C)cn3)CC2)C(C)(C)C)cc1 (some centres unmarked) [Example 768]", "endpointValue": "< 25%"}

What does the record list as Dmax for Cc1ncsc1-c1ccc([C@H](C)NC(=O)[C@@H]2C[C@@H](OC(=O)OC(C)C)CN2C(=O)[C@@H](NC(=O)COCCCCCNc2ccc(C(=O)N[C@H]3C(C)(C)[C@H](Oc4ccc(C#N)c(Cl)c4)C3(C)C)cc2)C(C)(C)C)cc1 [Example 652] ?
< 25%

Look up Dmax for this compound: Cc1ncsc1-c1ccc([C@H](C)NC(=O)[C@@H]2C[C@@H](O)CN2C(=O)[C@@H](NC(=O)CCCCC(CCCc2ccc(C(=O)N[C@H]3C(C)(C)[C@H](Oc4ccc(C#N)c(Cl)c4)C3(C)C)nc2)N2CCN(C)CC2)C(C)(C)C)cc1 (some centres unmarked) [Example 687]
26 to 50%

Reported Dmax for CC(C)(C)[C@H](NC(=O)COCCN1CCN(c2ccc(C(=O)N[C@H]3C(C)(C)[C@H](Oc4ccc(C#N)c(Cl)c4)C3(C)C)cn2)CC1)C(=O)N1C[C@H](O)C[C@H]1C(=O)NCc1cc(F)ccc1F [Example 775] : what is it?
< 25%
